# assay_target: T1, CD137 on pre-stimulated human CD8+ T cells (human, UniProt Q07011 24-255)
# T1 construct: also called pre-stimulated CD8+ cells; primary T cells
# T1 sequence (Q07011 24-255 limits assumed): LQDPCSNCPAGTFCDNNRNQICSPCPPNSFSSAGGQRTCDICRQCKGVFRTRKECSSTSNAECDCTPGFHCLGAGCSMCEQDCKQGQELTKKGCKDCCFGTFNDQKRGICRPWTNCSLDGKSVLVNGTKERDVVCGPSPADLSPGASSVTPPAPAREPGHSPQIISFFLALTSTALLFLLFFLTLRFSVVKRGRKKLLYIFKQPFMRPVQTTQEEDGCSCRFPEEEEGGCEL
# assay_explanation: flow cytometry, PMA/ionomycin-stimulated human CD8+ T cells, mean of 2-3 donors
endpoint_name: EC50 (nM)

Here is how some binders turned out for EC50.
# binder, EC50 [nM]
measured = [
    ("Humabody VH 2.9 (VHH, human single VH domain) VH: EVQLVESGGGLVKPGGSLRLSCAASGFTFSDYYMTWFRQAPGKGLEWISYISGSGDTIDYAESVKGRFTISRDNAKNSLYLQMNSLRAEDTAVYHCAREDSRIAGTTDFDNWGPGTLVTVSSHHHHHH", 0.6),
    ("Humabody VH 2.2 (VHH, human single VH domain) VH: EVQLVESGGGLVKPGGSLRVSCAASGFTFSDYYMSWFRQAPGKGLEWVSYISGSGDIIDYADSVKGRFTISRDNAKNSLYLQMNSLRAEDTAVYHCAKEDSRIPGTTDFDNWGQGTLVTVSSHHHHHH", 0.74),
]

[a] Humabody VH 1.78 (VHH, human single VH domain) VH: QVQLVESGGGLVQPGGSLRLSCAATGFTLSNYWMNWVRQAPGKGLEWVANINQDGSERYYVDSVKGRFTISRDNAKNSLYLQMSSLRAEDTAVYFCARGGEGYGVDHYGLDVSGQGTTVTVSSHHHHHH
[b] Humabody VH 2.1 (VHH, human single VH domain) VH: EVQLVESGGGLVKPGGSLRVSCAASGFTFSDYYMSWFRQAPGKGLEWVSYISGSGDIIDYADSVKGRFTISRDNAKNSLYLQMNNLRAEDTAVYHCAREDSRLTGTTDFDNWGQGTLVTVSSHHHHHH
Ask | Response body: label of entry with the larger EC50; valid values a , b . State your choice using its label.
Reply | b
